- tested on: T1, human TGFβ3 (human, UniProt P10600 301-412)
- T1 sequence: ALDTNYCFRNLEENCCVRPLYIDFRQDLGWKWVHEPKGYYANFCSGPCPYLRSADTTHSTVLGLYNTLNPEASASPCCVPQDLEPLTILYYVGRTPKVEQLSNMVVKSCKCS
- assay details: Biacore off-rate vs wt GC1008, 50 nM
Measured kd var/kd wt by item
Give your answer as a number; write no unit.

• Y27N (antibody, V domains shown, GC1008 IgG4 variant) VH: QVQLVQSGAEVKKPGSSVKVSCKASGNTFSSNVISWVRQAPGQGLEWMGGVIPIVDIANYAQRFKGRVTITADESTSTTYMELSSLRSEDTAVYYCASTLGLVLDAMDYWGQGTLVTVSS VL: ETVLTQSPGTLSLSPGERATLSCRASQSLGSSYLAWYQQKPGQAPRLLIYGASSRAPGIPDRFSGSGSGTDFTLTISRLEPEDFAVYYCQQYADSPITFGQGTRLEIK = 1.3
• D56G (antibody, V domains shown, GC1008 IgG4 variant) VH: QVQLVQSGAEVKKPGSSVKVSCKASGYTFSSNVISWVRQAPGQGLEWMGGVIPIVGIANYAQRFKGRVTITADESTSTTYMELSSLRSEDTAVYYCASTLGLVLDAMDYWGQGTLVTVSS VL: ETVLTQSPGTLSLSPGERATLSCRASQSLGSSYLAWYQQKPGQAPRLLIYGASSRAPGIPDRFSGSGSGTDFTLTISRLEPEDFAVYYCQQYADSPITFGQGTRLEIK = 1.1
• S30M (antibody, V domains shown, GC1008 IgG4 variant) VH: QVQLVQSGAEVKKPGSSVKVSCKASGYTFMSNVISWVRQAPGQGLEWMGGVIPIVDIANYAQRFKGRVTITADESTSTTYMELSSLRSEDTAVYYCASTLGLVLDAMDYWGQGTLVTVSS VL: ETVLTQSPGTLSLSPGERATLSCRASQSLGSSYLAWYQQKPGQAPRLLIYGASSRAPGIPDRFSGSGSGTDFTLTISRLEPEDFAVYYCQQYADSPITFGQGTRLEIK = 1

# context switch: different binder, same kd var/kd wt
Query: Retrieve kd var/kd wt measured for Y27A (antibody, V domains shown, GC1008 IgG4 variant) VH: QVQLVQSGAEVKKPGSSVKVSCKASGATFSSNVISWVRQAPGQGLEWMGGVIPIVDIANYAQRFKGRVTITADESTSTTYMELSSLRSEDTAVYYCASTLGLVLDAMDYWGQGTLVTVSS VL: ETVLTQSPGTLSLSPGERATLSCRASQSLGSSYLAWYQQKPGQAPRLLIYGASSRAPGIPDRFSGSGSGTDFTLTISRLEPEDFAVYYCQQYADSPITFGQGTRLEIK and print it.
Result: 1.5
